Cited source for all entries: patent US20240383974A1

Reported values of EC50 for individual entries
target: T1, human transforming growth factor β1 (human, UniProt P01137 279-390); assay: ELISA, plate-coated hTGF-β1
T1 construct: Coated on the ELISA plate at 100 ng/well; also called hTGF-β1; TGF-β
T1 sequence (P01137 279-390 limits assumed): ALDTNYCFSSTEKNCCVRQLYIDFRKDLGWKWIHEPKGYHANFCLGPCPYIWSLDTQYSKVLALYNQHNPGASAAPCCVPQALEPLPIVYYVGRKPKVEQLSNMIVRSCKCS
value_type: EC50

binder="antibody m202-hu (antibody, V domains shown, Humanized m202) VH: QVQLVQSGAEVKKPGASVKVSCKASGYTFTSYWMHWVKQAPGQGLEWIGNINPSNGDTNYNEKFKSKATLTVDKSTSTAYMELRSLRSDDTAVYYCARATYGSYGYFDVWGQGTLVTVSS VL: DIVLTQSPDSLAVSLGERATINCRASESVTIIGTNLIQWFQQKPGQPPKLLIYHASNLETGVPDRFSGSGSRTDFTLTISSLQAEDVAVYYCLQSRQIPRTFGGGTKVEIK" value_type=EC50 result="< 2 nM"
binder="antibody m109-hu (antibody, V domains shown, Humanized m109) VH: EVQLVESGGGLVQPGGSLRLSCATSGFTFSDYYMYWVRQTPEKRLEWVAYISNGGGRTYYPDTVKGRFTISRDNAKNSLYLQMSRLRAEDTAVYYCARQKTNYGNYEEDYYAMGYWGQGTSVTVSS VL: DIVLTQSPASLAVSLGQRATITCRASKSVSTSGYSYIHWYQQKPGQPPKLLIYLASNLESGVPARFSGSGSGTDFTLTINPVEEEDAATYYCQHSRELPLTFGAGTKLEIK" value_type=EC50 result="0.73 nM"
binder="antibody m301-hu (antibody, V domains shown, Humanized m301) VH: QVQLQESGPGLVKPSGTLSLTCAVSGFSLTTYGVTWVRQPPGKGLEWIGLIWGDGTTDYHSTFISRLTISKDKSKNQVSLKLSSVTAADTAVYYCASYYFAMHYWGQGTLVTVSS VL: DIVMTQSPDSLAVSLGERATINCKSSQSLLNSRTQKNYLAWYQQKPGQSPKLLIYWASTRESGVPDRFSGSGSGTDFTLTISSLQAEDVAVYYCKQSYNLWTFGGGTKVEIK" value_type=EC50 result="< 2 nM"
